The measured values listed here are drawn from ChEMBL document CHEMBL1131037.

# measurementTarget: Human rhinovirus A protease (Human rhinovirus sp.)
# Sequence (whole entry): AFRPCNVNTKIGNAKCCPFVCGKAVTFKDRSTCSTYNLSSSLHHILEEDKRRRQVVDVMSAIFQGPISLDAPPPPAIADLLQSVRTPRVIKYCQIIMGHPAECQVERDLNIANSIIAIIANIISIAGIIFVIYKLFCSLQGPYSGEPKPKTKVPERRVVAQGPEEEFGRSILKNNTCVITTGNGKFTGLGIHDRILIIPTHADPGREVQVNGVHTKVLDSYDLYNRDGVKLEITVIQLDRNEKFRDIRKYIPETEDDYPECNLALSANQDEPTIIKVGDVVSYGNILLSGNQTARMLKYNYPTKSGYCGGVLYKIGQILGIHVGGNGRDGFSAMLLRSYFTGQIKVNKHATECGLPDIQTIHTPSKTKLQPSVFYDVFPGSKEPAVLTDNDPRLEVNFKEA
# experimentalProtocol: Binding affinity on human Rhinovirus 3C protease (rhinovirus serotype 14)
measurementName: log10 K obs / 1 (log10 of the value in M⁻¹ s⁻¹)
The base-10 logarithm of K obs / 1, taken with K obs / 1 in M⁻¹ s⁻¹, is what appears here.

Guide cases for log10 K obs / 1, answers given:
CCOC(=O)/C=C/[C@H](CCC(N)=O)NC(=O)[C@H](Cc1ccc(OC)cc1)NC(=O)[C@H](CC(C)C)NC(=O)OCc1ccccc1 | 4.46
CCOC(=O)/C=C/[C@H](CCC(N)=O)NC(=O)[C@H](Cc1ccccc1)NC(=O)[C@@H](NC(=O)OCc1ccccc1)C(C)C | 4.80
CCOC(=O)/C=C/[C@H](CCC(N)=O)NC(=O)[C@H](Cc1ccccc1)NC(=O)[C@H](Cc1ccccc1)NC(=O)OCc1ccccc1 | 5.21

INPUT: So what does the record say about log10 K obs / 1 for "CCOC(=O)/C=C/[C@H](CCC(N)=O)NC(=O)[C@H](Cc1ccccc1)NC(=O)[C@H](CC(C)C)NC(=O)C(C)(C)C" ?
OUTPUT: 3.91

INPUT: Look up log10 K obs / 1 for this compound: "CCOC(=O)/C=C/[C@H](CCC(N)=O)NC(=O)[C@H](Cc1ccccc1)NC(=O)[C@H](CCSC)NC(=O)OCc1ccccc1"
OUTPUT: 4.66

INPUT: Item CCOC(=O)/C=C/[C@H](CC[S+](C)[O-])NC(=O)[C@H](Cc1ccccc1)NC(=O)[C@H](CC(C)C)NC(=O)OCc1ccccc1 (some centres undefined) has what recorded log10 K obs / 1?
OUTPUT: 3.34

INPUT: Please report the recorded log10 K obs / 1 for "CCOC(=O)/C=C/[C@H](CCC(N)=O)NC(=O)[C@H](Cc1ccccc1)NC(=O)[C@H](CCCCN)NC(=O)OCc1ccccc1" .
OUTPUT: 4.27

INPUT: Consider the compound shown here: "CCOC(=O)/C=C/[C@H](CCC(N)=O)NC(=O)[C@H](Cc1ccccc1)NC(=O)[C@H](CC(C)C)NC(=O)c1ccc(Oc2ccccc2)cc1" What is its recorded log10 K obs / 1?
OUTPUT: 3.90

====

# K obs / 1 listing for each entry below
# measurementTarget: Human rhinovirus A protease (Human rhinovirus sp.) (UniProt Q4U254)
# experimentalProtocol: Binding affinity on human Rhinovirus 3C protease (rhinovirus serotype 14)
# value in M⁻¹ s⁻¹; strip the unit string

// known answers, use as guide
CCOC(=O)/C=C/[C@H](CCC(N)=O)NC(=O)[C@H](Cc1ccccc1)NC(=O)[C@H](CC(C)C)NC(=O)c1ccc2ccccc2c1 | 21000
CCC[C@H](NC(=O)[C@H](CC(C)C)NC(=O)OCc1ccccc1)C(=O)N[C@H](/C=C/C(=O)OCC)CCC(N)=O | 2300
CCOC(=O)/C=C/[C@H](CCC(N)=O)NC(=O)[C@H](Cc1ccc(C)cc1)NC(=O)[C@H](CC(C)C)NC(=O)OCc1ccccc1 | 59400

INPUT: Human rhinovirus A protease (Human rhinovirus sp.) (UniProt Q4U254) / K obs / 1 / "CCOC(=O)/C=C/[C@H](CCC(N)=O)NC(=O)[C@H](Cc1ccccc1)NC(=O)[C@H](CC(C)C)NC(=O)SC" : value?
OUTPUT: 69800

INPUT: // map "CCOC(=O)/C=C/[C@H](CCC(=O)NC(c1ccccc1)(c1ccccc1)c1ccccc1)NC(=O)[C@H](Cc1ccccc1)NC(=O)[C@H](CC(C)C)NC(=O)OCc1ccccc1" to recorded K obs / 1 (system: Human rhinovirus A protease (Human rhinovirus sp.) (UniProt Q4U254))
OUTPUT: 0

INPUT: Human rhinovirus A protease (Human rhinovirus sp.) (UniProt Q4U254) / K obs / 1 / "CCOC(=O)/C=C/[C@H](CNC(C)=O)NC(=O)[C@H](Cc1ccccc1)NC(=O)[C@H](CC(C)C)NC(=O)OCc1ccccc1" : value?
OUTPUT: 800

INPUT: // lookup K obs / 1 | system=Human rhinovirus A protease (Human rhinovirus sp.) (UniProt Q4U254) | key= "CCOC(=O)/C=C/[C@H](CCC(N)=O)NC(=O)[C@H](Cc1ccc(COC)cc1)NC(=O)[C@H](CC(C)C)NC(=O)OCc1ccccc1"
OUTPUT: 7100

INPUT: Form field - read-out: K obs / 1; system: Human rhinovirus A protease (Human rhinovirus sp.) (UniProt Q4U254); submitted item: "CCOC(=O)/C=C/[C@H](CCC(N)=O)NC(=O)[C@H](Cc1ccccc1)NC(=O)[C@H](CSC)NC(=O)OCc1ccccc1"
OUTPUT: 35200

INPUT: Provide value of K obs / 1 for this record tested with Human rhinovirus A protease (Human rhinovirus sp.) (UniProt Q4U254): "CCOC(=O)/C=C/[C@H](CCC(N)=O)NC(=O)[C@H](Cc1ccc(CO)cc1)NC(=O)[C@H](CC(C)C)NC(=O)OCc1ccccc1"
OUTPUT: 82300

INPUT: Item: "CCOC(=O)/C=C/[C@H](CCC(N)=O)NC(=O)[C@H](Cc1ccc(O)cc1)NC(=O)[C@H](CC(C)C)NC(=O)OCc1ccccc1" Test system: Human rhinovirus A protease (Human rhinovirus sp.) (UniProt Q4U254) Read-out: K obs / 1 Value: ?
OUTPUT: 11300

INPUT: # get_value(readout= K obs / 1, system= Human rhinovirus A protease (Human rhinovirus sp.) (UniProt Q4U254)) for "CCOC(=O)/C=C/[C@H](CCC(N)=O)NC(=O)[C@H](CC(C)C)NC(=O)[C@H](CC(C)C)NC(=O)OCc1ccccc1"
OUTPUT: 2300

INPUT: Notebook: pull reported K obs / 1 for Human rhinovirus A protease (Human rhinovirus sp.) (UniProt Q4U254), entry "CCOC(=O)/C=C/[C@H](CCC(N)=O)NC(=O)[C@H](Cc1ccccc1)NC(=O)[C@H](CC(C)C)NC(=O)OCc1ccccc1C"
OUTPUT: 41800

INPUT: Form: Entry = "CCOC(=O)/C=C/[C@H](CCC(N)=O)NC(=O)[C@H](Cc1ccc(CCO)cc1)NC(=O)[C@H](CC(C)C)NC(=O)OCc1ccccc1" | System = Human rhinovirus A protease (Human rhinovirus sp.) (UniProt Q4U254) | K obs / 1 = ____
OUTPUT: 43100

INPUT: Give K obs / 1 (Human rhinovirus A protease (Human rhinovirus sp.) (UniProt Q4U254)) of the following compound: "CCOC(=O)/C=C/[C@H](CCC(=O)O)NC(=O)[C@H](Cc1ccccc1)NC(=O)[C@H](CC(C)C)NC(=O)OCc1ccccc1"
OUTPUT: 500

====

# measurementTarget: Human rhinovirus A protease (Human rhinovirus sp.) (UniProt Q4U254)
# experimentalProtocol: Binding affinity on human Rhinovirus 3C protease (rhinovirus serotype 14)
measurementName: log10(K obs / 1) (log10 of the value in M⁻¹ s⁻¹)
Would you kindly interpret these values as log10 of K obs / 1 expressed in M⁻¹ s⁻¹?

CCOC(=O)/C=C/[C@H](CCC(N)=O)NC(=O)[C@H](Cc1ccccc1)NC(=O)[C@H](CC(C)C)NC(=O)c1ccccc1 | 3.98
CCOC(=O)/C=C/[C@H](CCC(N)=O)NC(=O)[C@H](CSC)NC(=O)[C@H](CC(C)C)NC(=O)OCc1ccccc1 | 3.46
CCOC(=O)/C=C/[C@H](CCC(N)=O)NC(=O)[C@H](CCC(=O)O)NC(=O)[C@H](CC(C)C)NC(=O)OCc1ccccc1 | 2.30
CCOC(=O)/C=C/[C@H](CCC(N)=O)NC(=O)[C@H](Cc1ccccc1)NC(=O)[C@H](CC(C)C)NC(=O)OC(C)(C)C | 2.85

INPUT: # get_value(readout= log10(K obs / 1), system= Human rhinovirus A protease (Human rhinovirus sp.) (UniProt Q4U254)) for "CCOC(=O)/C=C/[C@H](CCC(N)=O)NC(=O)[C@H](Cc1nccn1C)NC(=O)[C@H](CC(C)C)NC(=O)OCc1ccccc1"
OUTPUT: 3.95

INPUT: Please provide the recorded log10(K obs / 1) for "CCOC(=O)/C=C/[C@H](CCC(N)=O)NC(=O)[C@H](Cc1ccccc1)NC(=O)[C@H](CC(C)C)NC(=O)CCO" , tested on Human rhinovirus A protease (Human rhinovirus sp.) (UniProt Q4U254).
OUTPUT: 3.65

INPUT: Test system Human rhinovirus A protease (Human rhinovirus sp.) (UniProt Q4U254); read-out log10(K obs / 1); what value for "CCOC(=O)/C=C/[C@H](CNC(N)=O)NC(=O)[C@H](Cc1ccccc1)NC(=O)[C@H](CC(C)C)NC(=O)OCc1ccccc1" ?
OUTPUT: 3.54
